target-system: specific receptor on the membrane of human neutrophils (leukotriene B4) (Homo sapiens, UniProt Q15722)
Construct: Freshly-prepared buffy coat layers from two individuals were obtained from a local blood donor center; endogenous in cells; host or cells: intact human peripheral blood neutrophils from buffy coats of two donors
Sequence (Q15722 whole entry): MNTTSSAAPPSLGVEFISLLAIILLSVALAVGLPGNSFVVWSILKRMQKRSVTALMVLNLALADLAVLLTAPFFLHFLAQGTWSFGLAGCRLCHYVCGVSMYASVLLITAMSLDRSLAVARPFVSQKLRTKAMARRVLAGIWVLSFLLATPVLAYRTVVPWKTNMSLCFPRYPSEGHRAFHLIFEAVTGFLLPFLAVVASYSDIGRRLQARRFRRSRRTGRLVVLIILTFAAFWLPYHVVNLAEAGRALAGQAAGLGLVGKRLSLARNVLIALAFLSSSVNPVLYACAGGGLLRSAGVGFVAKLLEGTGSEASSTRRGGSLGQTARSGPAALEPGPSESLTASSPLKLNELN
measurement-description: Inhibition of Binding of ^3 H-LTB4 to Peripheral Human Neutrophils
settings: drug concentration 10^-5 M; 0.1-0.2 nM ^3 H-LTB4, 10 minutes at 4° C; read-out: LTB4 Binding Inhibition
Form field: inhibition at 10 µM (one value per entry).
measurement-type: inhibition at 10 µM (%)

[[record]]
compound = "COc1ccc(CCCCCCOc2ccc(C(=O)c3cccc(C(=O)O)c3)cc2CCC(=O)O)cc1"
measurement_type = "inhibition at 10 µM"
unit_tag = "%"
reported_result = 105

[[record]]
compound = "CCCCCCCCCCOc1ccc(C(=O)c2cccc(-c3nnn[nH]3)c2)cc1CC(=O)OCC"
measurement_type = "inhibition at 10 µM"
unit_tag = "%"
reported_result = -13

[[record]]
compound = "C[S+]([O-])c1ccc(C=CCCCCOc2ccc(C(=O)c3cccc(C(=O)O)c3)cc2CCC(=O)O)cc1 (stereo not drawn)"
measurement_type = "inhibition at 10 µM"
unit_tag = "%"
reported_result = 98

[[record]]
compound = "CCCCCCCCCCOc1ccc(C(O)c2cccc(C(=O)OCC)c2)cc1CC(=O)OCC (stereo not drawn)"
measurement_type = "inhibition at 10 µM"
unit_tag = "%"
reported_result = -14

[[record]]
compound = "CCCCCCCCCCOc1ccc(C(O)c2cccc(C(=O)O)c2)cc1CC(=O)O (stereo not drawn)"
measurement_type = "inhibition at 10 µM"
unit_tag = "%"
reported_result = 78

[[record]]
compound = "CSc1ccc(C=CCCCCOc2ccc(C(=O)c3cccc(C(=O)O)c3)cc2CCC(=O)O)cc1"
measurement_type = "inhibition at 10 µM"
unit_tag = "%"
reported_result = 103

[[record]]
compound = "CCCCCCCCCCCCCCOc1ccc(C(=O)c2cccc(C(=O)O)c2)cc1CC(=O)O"
measurement_type = "inhibition at 10 µM"
unit_tag = "%"
reported_result = 63

[[record]]
compound = "CS(=O)(=O)c1ccc(C=CCCCCOc2ccc(C(=O)c3cccc(C(=O)O)c3)cc2CCC(=O)O)cc1"
measurement_type = "inhibition at 10 µM"
unit_tag = "%"
reported_result = 98

[[record]]
compound = "CCCCCCCCCCOc1ccc(Cc2cccc(C(=O)O)c2)cc1CCC(=O)O"
measurement_type = "inhibition at 10 µM"
unit_tag = "%"
reported_result = 88

[[record]]
compound = "CCCCCCCCCCOc1ccc(C(=O)c2cccc(C(=O)OCC)c2)cc1Cc1nnn[nH]1"
measurement_type = "inhibition at 10 µM"
unit_tag = "%"
reported_result = -11

[[record]]
compound = "O=C(O)CCc1cc(C(=O)c2cccc(C(=O)O)c2)ccc1OCCCC[S+]([O-])c1ccccc1 (stereo not drawn)"
measurement_type = "inhibition at 10 µM"
unit_tag = "%"
reported_result = 22

[[record]]
compound = "CCCCCCCCCCOc1ccc(C(=O)c2ccccc2C(=O)O)cc1CC(=O)OCC"
measurement_type = "inhibition at 10 µM"
unit_tag = "%"
reported_result = 19

[[record]]
compound = "CCCCCCCCCCOc1ccc(C(=O)c2cccc(C(=O)O)c2)cc1CCCC(=O)O"
measurement_type = "inhibition at 10 µM"
unit_tag = "%"
reported_result = 87

[[record]]
compound = "CCCCCCCCCCOc1ccc(C(O)c2ccc(C(=O)O)cc2)cc1CC(=O)O (stereo not drawn)"
measurement_type = "inhibition at 10 µM"
unit_tag = "%"
reported_result = 59

[[record]]
compound = "COc1ccccc1C=CCCCCOc1ccc(C(=O)c2cccc(C(=O)O)c2)cc1CCC(=O)O"
measurement_type = "inhibition at 10 µM"
unit_tag = "%"
reported_result = 101

